- study-system: T1, TGFβ1 (R&D Systems)
- T1 construct: also called TGFB1
- T1 sequence (P01137 279-390): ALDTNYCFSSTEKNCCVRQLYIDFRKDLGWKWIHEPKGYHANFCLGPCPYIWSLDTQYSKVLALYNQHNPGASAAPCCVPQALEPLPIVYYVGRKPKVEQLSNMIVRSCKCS
- experiment-description: single point SPR
Provide the recorded Kd for the entries that follow.
Report only the number, with the unit nM understood.

What does the data say about its Kd? Entry: Can-SL501-VH3 S112L / Can-SL501-VL2 (antibody, V domains shown) VH: EVQLVESGGDLVKPGGSLRLSCVASGFTFSSYGMHWVRQAPGKELEWVAVISYDGSIKYYADAVKGRFTISRDNAKNTLYLQMNSLRAEDTAVYYCARTGEYSGYDTDPQYLWGQGTTVTVSS VL: EIVMTQSPGSLAGSAGESVSINCRASQGIGDDLGWYQQKPGERPKLLIYGTSTLQSGVPARFSSSGSGTDFTLTINNLQAEDVGDYYCLQDSNYPLTFGAGTK
6.97

What does the data say about its Kd? Entry: Can-SL501-VH3 P109F / Can-SL501-VL2 (antibody, V domains shown) VH: EVQLVESGGDLVKPGGSLRLSCVASGFTFSSYGMHWVRQAPGKELEWVAVISYDGSIKYYADAVKGRFTISRDNAKNTLYLQMNSLRAEDTAVYYCARTGEYSGYDTDFQYSWGQGTTVTVSS VL: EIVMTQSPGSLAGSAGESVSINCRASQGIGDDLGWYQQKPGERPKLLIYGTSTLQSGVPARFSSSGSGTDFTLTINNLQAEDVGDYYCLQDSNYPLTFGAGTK
0.534

What does the data say about its Kd? Entry: Can-SL501-VH3 P109Y / Can-SL501-VL2 (antibody, V domains shown) VH: EVQLVESGGDLVKPGGSLRLSCVASGFTFSSYGMHWVRQAPGKELEWVAVISYDGSIKYYADAVKGRFTISRDNAKNTLYLQMNSLRAEDTAVYYCARTGEYSGYDTDYQYSWGQGTTVTVSS VL: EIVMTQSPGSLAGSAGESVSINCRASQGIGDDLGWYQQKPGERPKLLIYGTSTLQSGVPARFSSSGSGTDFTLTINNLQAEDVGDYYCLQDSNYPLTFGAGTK
8.4

What does the data say about its Kd? Entry: Can-SL501-VH3 D108H / Can-SL501-VL2 (antibody, V domains shown) VH: EVQLVESGGDLVKPGGSLRLSCVASGFTFSSYGMHWVRQAPGKELEWVAVISYDGSIKYYADAVKGRFTISRDNAKNTLYLQMNSLRAEDTAVYYCARTGEYSGYDTHPQYSWGQGTTVTVSS VL: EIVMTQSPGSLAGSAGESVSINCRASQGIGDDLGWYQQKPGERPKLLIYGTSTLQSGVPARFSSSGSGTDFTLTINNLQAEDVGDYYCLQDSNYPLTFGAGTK
1.83

What does the data say about its Kd? Entry: Can-SL501-VH3 Q110V / Can-SL501-VL2 (antibody, V domains shown) VH: EVQLVESGGDLVKPGGSLRLSCVASGFTFSSYGMHWVRQAPGKELEWVAVISYDGSIKYYADAVKGRFTISRDNAKNTLYLQMNSLRAEDTAVYYCARTGEYSGYDTDPVYSWGQGTTVTVSS VL: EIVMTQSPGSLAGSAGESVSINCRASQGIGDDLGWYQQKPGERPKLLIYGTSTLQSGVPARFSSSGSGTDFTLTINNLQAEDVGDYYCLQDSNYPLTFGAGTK
7.37

Values were extracted from patent US20220119513A1.
